Data credit: the supplement of paper PMC10567573

B1: SEC22B (parent)
chain: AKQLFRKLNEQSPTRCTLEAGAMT

# Variants of: B1
# ASSAY_PROTOCOL: protein stability index of a GFP-peptide fusion (GPS, HEK-293T) (PSI 1-6); higher = more stable;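 further: lentivirally expressed fusions sorted by FACS into six bins by GFP to DsRed ratio, PSI derived from sequencing read proportions per bin multiplied by bin number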
# CONDITION_INFO: c terminus: a fixed tail appended
Entries annotated with measured protein stability index

{"VARIANT_DESIGNATION": "N9D", "protein stability index": 2.98}
{"VARIANT_DESIGNATION": "F5L", "protein stability index": 2.48}
{"VARIANT_DESIGNATION": "Q11K", "protein stability index": 1.96}
{"VARIANT_DESIGNATION": "Q11M", "protein stability index": 2.26}
{"VARIANT_DESIGNATION": "A1E", "protein stability index": 3.12}
{"VARIANT_DESIGNATION": "R6P", "protein stability index": 2.51}
{"VARIANT_DESIGNATION": "C16K", "protein stability index": 2.95}
{"VARIANT_DESIGNATION": "R15N", "protein stability index": 3.19}
{"VARIANT_DESIGNATION": "Q11H", "protein stability index": 1.99}
{"VARIANT_DESIGNATION": "M23C", "protein stability index": 2.18}
{"VARIANT_DESIGNATION": "G21Q", "protein stability index": 1.68}
{"VARIANT_DESIGNATION": "E10N", "protein stability index": 1.95}
{"VARIANT_DESIGNATION": "N9L", "protein stability index": 1.35}
{"VARIANT_DESIGNATION": "T17W", "protein stability index": 2.28}
{"VARIANT_DESIGNATION": "F5H", "protein stability index": 2.89}
{"VARIANT_DESIGNATION": "E19D", "protein stability index": 3.05}
{"VARIANT_DESIGNATION": "G21K", "protein stability index": 2.11}
{"VARIANT_DESIGNATION": "M23T", "protein stability index": 2.22}
{"VARIANT_DESIGNATION": "L4S", "protein stability index": 3.44}
{"VARIANT_DESIGNATION": "K2Y", "protein stability index": 2.24}
{"VARIANT_DESIGNATION": "R15H", "protein stability index": 3.44}
{"VARIANT_DESIGNATION": "R15W", "protein stability index": 1.97}
